- Experimental system: Avi-KRAS G12D/Q25A (1-169) GppNHp/3xFLAG-PI3KCA (157-299) (Homo sapiens, UniProt P01116, G12D/Q25A)
- Construct: 375 nM Avi-KRAS G12D/Q25A (1-169) GppNHp
- Sequence (P01116 1-169 isoform P01116-2 G12D/Q25A): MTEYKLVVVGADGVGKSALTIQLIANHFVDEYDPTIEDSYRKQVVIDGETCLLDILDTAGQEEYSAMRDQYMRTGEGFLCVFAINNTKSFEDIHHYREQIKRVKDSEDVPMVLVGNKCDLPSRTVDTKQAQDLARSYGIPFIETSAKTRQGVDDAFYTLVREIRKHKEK
- Test summary: RAS-effector PPI HTRF disruption assay, PI3KCA-GppNHp-KRAS G12D/Q25A
Property measured: IC50

Worked cases, answers included:
Molecule	IC50
C[C@@H]1C[C@@H](Oc2nc(OC[C@@]34CCCN3C[C@H](F)C4)nc3c(F)c(-c4ccc(F)c5sc(N)c(C#N)c45)ccc23)CN1	100 to 1000 nM
C[C@H]1NCC[C@@H]1Oc1nc(OC[C@@]23CCCN2C[C@H](F)C3)nc2c(F)c(-c3ccc(F)c4sc(N)c(C#N)c34)c(Cl)cc12	100 to 1000 nM

Turning now to a further record.
INPUT: State its IC50: N#Cc1c(N)sc2c(F)ccc(-c3c(Cl)cc4c(O[C@@H]5CNC[C@H]5F)nc(OC[C@@]56CCCN5C[C@H](F)C6)nc4c3F)c12 (atropisomer, axis not shown)
OUTPUT: > 10000 nM

----------
- Experimental system: Avi-KRAS G12V (1-169) GppNHp/RAF1 RBD-3xFLAG (52-151) (Homo sapiens, UniProt P01116, G12V)
- Construct: 50 nM Avi-KRAS G12V (1-169) GppNHp
- Sequence (P01116 1-169 isoform P01116-2 G12V): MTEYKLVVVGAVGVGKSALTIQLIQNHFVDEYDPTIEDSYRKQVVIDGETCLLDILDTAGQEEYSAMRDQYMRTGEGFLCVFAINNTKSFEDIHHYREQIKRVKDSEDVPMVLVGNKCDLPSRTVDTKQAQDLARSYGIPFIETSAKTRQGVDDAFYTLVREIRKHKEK
- Test summary: RAS-effector PPI HTRF disruption assay, Raf1-GppNHp-KRAS G12V
- Experimental: A protein:protein interaction (PPI) Homogeneous Time Resolved Fluorescence (HTRF) assay was used to determine the effectiveness of compounds of the present disclosure in disrupting KRAS protein and effector (RAF1 or PIK3 CA) binding. […] Plates were analyzed on an Envision plate reader using the following setting: Excitation 320 nm, Bandwidth […]; Emission 615 nm, Bandwidth […], Gain 100%, Flashes 100, Lag 60 μs. […] Data was plotted and analyzed using Prism 8. […]
Property measured: IC50

Worked cases, answers included:
Molecule	Experimental system	IC50
Nc1nc2c(-c3c(C(F)(F)F)cc4c(O[C@@H]5CCNC5)nc(OC[C@@]56CCCN5C[C@H](F)C6)nc4c3F)ccc(F)c2s1 (atropisomer, axis not shown) [Compound 5]	Avi-KRAS G12V (1-169) GppNHp/RAF1 RBD-3xFLAG (52-151) (Homo sapiens, UniProt P01116, G12V)	> 10 µM
COC[C@@H]1C[C@@H](Oc2nc(OC[C@@]34CCCN3C[C@H](F)C4)nc3c(F)c(-c4ccc(F)c5sc(N)c(C#N)c45)c(C(F)(F)F)cc23)CN1 (atropisomer, axis not shown) [Compound 84]	Avi-KRAS G12V (1-169) GppNHp/RAF1 RBD-3xFLAG (52-151) (Homo sapiens, UniProt P01116, G12V)	0.1 to 1 µM
C[C@@H]1CNCC1Oc1nc(OC[C@@]23CCCN2C[C@H](F)C3)nc2c(F)c(-c3ccc(F)c4scnc34)c(C(F)(F)F)cc12 (some centres unmarked) [Compound 14]	Avi-KRAS G12V (1-169) GppNHp/RAF1 RBD-3xFLAG (52-151) (Homo sapiens, UniProt P01116, G12V)	> 10 µM
C[C@@H]1C[C@@H](Oc2nc(OC[C@@]34CCCN3C[C@H](F)C4)nc3c(F)c(-c4ccc(F)c5sc(N)nc45)c(C(F)(F)F)cc23)CN1 (atropisomer, axis not shown) [Compound 20]	Avi-KRAS G12V (1-169) GppNHp/RAF1 RBD-3xFLAG (52-151) (Homo sapiens, UniProt P01116, G12V)	1 to 10 µM
Nc1nc2c(-c3c(C(F)(F)F)cc4c(O[C@H]5CNC[C@H]5F)nc(OC[C@@]56CCCN5C[C@H](F)C6)nc4c3F)ccc(F)c2s1 [Compound 22]	Avi-KRAS G12V (1-169) GppNHp/RAF1 RBD-3xFLAG (52-151) (Homo sapiens, UniProt P01116, G12V)	> 10 µM

INPUT: State its IC50: Nc1nc2c(-c3c(C(F)(F)F)cc4c(OC5CC6CC[C@H]5N6)nc(OCC56CCCN5CCC6)nc4c3F)ccc(F)c2s1 (some centres unmarked) [Compound 36]
OUTPUT: > 10 µM

INPUT: State its IC50: N#Cc1c(N)sc2c(F)ccc(-c3cc4nc(OC[C@@]56CCCN5C[C@H](F)C6)nc(O[C@@H]5CCNC5)c4nc3C(F)(F)F)c12 [Compound 93]
OUTPUT: 1 to 10 µM

INPUT: State its IC50: C[C@H]1NCC[C@H]1Oc1nc(OC[C@@]23CCCN2C[C@H](F)C3)nc2c(F)c(-c3ccc(F)c4sc(N)c(C#N)c34)c(C(F)(F)F)cc12 (single isomer, unassigned) [Compound 73]
OUTPUT: ≤ 0.1 µM

----------
- Experimental system: Avi-KRAS G12V (1-169) GppNHp/RAF1 RBD-3xFLAG (52-151) (Homo sapiens, UniProt P01116, G12V)
- Construct: 50 nM Avi-KRAS G12V (1-169) GppNHp
- Test summary: RAS-effector PPI HTRF disruption assay, Raf1-GppNHp-KRAS G12V
- Type: biochemical
Property measured: IC50

Compound	IC50
C[C@@H]1C[C@H](Oc2nc(OC[C@@]34CCCN3C[C@H](F)C4)nc3c(F)c(-c4ccc(F)c5sc(N)c(C#N)c45)c(Cl)cc23)CN1 (atropisomer, axis not shown) [Compound 61]	> 10000 nM
N#Cc1c(N)sc2c(F)ccc(-c3c(Cl)cc4c(O[C@@H]5CN[C@@H](CO)C5)nc(OC[C@@]56CCCN5C[C@H](F)C6)nc4c3F)c12 (atropisomer, axis not shown) [Compound 69]	100 to 1000 nM
C[C@H]1NCC[C@H]1Oc1nc(OC[C@@]23CCCN2C[C@H](F)C3)nc2c(F)c(-c3ccc(F)c4sc(N)c(C#N)c34)c(C(F)(F)F)cc12 [Compound 47]	100 to 1000 nM
C[C@H]1NCC[C@H]1Oc1nc(OC[C@@]23CCCN2C[C@H](F)C3)nc2c(F)c(-c3ccc(F)c4sc(N)c(C#N)c34)ncc12	1000 to 10000 nM
Nc1nc2c(-c3c(C(F)(F)F)cc4c(O[C@@H]5CCNC5)nc(OC[C@@]56CCCN5C[C@H](F)C6)nc4c3F)ccc(F)c2s1 (atropisomer, axis not shown) [Compound 4]	1000 to 10000 nM

Turning now to a further record.
INPUT: State its IC50: C[C@H]1NCC[C@H]1Oc1nc(OC[C@@]23CCCN2C[C@H](F)C3)nc2cc(-c3ccc(F)c4sc(N)nc34)c(C(F)(F)F)cc12
OUTPUT: 1000 to 10000 nM

----------
- Experimental system: Avi-KRAS WT (1-169) GppNHp/RAF1 RBD-3xFLAG (52-151) (Homo sapiens, UniProt P01116)
- Construct: 50 nM Avi-KRAS WT (1-169) GppNHp
- Sequence (P01116 1-169 isoform P01116-2): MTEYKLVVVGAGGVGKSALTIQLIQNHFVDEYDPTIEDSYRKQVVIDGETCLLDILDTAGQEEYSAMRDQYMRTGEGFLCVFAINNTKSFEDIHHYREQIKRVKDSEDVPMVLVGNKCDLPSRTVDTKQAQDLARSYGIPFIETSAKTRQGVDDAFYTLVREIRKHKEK
- Test summary: RAS-effector PPI HTRF disruption assay, Raf1-GppNHp-KRAS WT
pIC50: −log10 of the molar value.
Property measured: pIC50

Worked cases, answers included:
> print(dat)
                                   molecule                       experimental.system  property.measured        result
1  C[C@H]1NCC[C@H]1Oc1nc(OC[C@@]23CCCN2C[C@H](F)C3)nc2cc(-c3ccc(F)c4sc(N)c(C#N)c34)c(C(F)(F)F)nc12  Avi-KRAS WT (1-169) GppNHp/RAF1 RBD-3xFLAG (52-151) (Homo sapiens, UniProt P01116)              pIC50  6.00 to 7.00
2  Nc1nc2c(-c3c(C(F)(F)F)cc4c(OC5CC6CC[C@H]5N6)nc(OCC56CCCN5CCC6)nc4c3F)ccc(F)c2s1 (stereo partly shown)  Avi-KRAS WT (1-169) GppNHp/RAF1 RBD-3xFLAG (52-151) (Homo sapiens, UniProt P01116)              pIC50  5.00 to 6.00
3  N#Cc1c(-c2ccc(F)c3sc(N)c(C#N)c23)c(Cl)cc2c(O[C@H]3CNC[C@H]3F)nc(OC[C@@]34CCCN3C[C@H](F)C4)nc12  Avi-KRAS WT (1-169) GppNHp/RAF1 RBD-3xFLAG (52-151) (Homo sapiens, UniProt P01116)              pIC50  5.00 to 6.00

INPUT: Fill in pIC50 for C[C@H]1CNCC1Oc1nc(OC[C@@]23CCCN2C[C@H](F)C3)nc2c(F)c(-c3ccc(F)c4sc(N)nc34)c(C(F)(F)F)cc12 (stereo partly shown) tested with Avi-KRAS WT (1-169) GppNHp/RAF1 RBD-3xFLAG (52-151) (Homo sapiens, UniProt P01116).
OUTPUT: 5.00 to 6.00
